# System under test: Cannabinoid receptor 1 (Homo sapiens, UniProt P21554)
# Sequence (P21554 whole entry): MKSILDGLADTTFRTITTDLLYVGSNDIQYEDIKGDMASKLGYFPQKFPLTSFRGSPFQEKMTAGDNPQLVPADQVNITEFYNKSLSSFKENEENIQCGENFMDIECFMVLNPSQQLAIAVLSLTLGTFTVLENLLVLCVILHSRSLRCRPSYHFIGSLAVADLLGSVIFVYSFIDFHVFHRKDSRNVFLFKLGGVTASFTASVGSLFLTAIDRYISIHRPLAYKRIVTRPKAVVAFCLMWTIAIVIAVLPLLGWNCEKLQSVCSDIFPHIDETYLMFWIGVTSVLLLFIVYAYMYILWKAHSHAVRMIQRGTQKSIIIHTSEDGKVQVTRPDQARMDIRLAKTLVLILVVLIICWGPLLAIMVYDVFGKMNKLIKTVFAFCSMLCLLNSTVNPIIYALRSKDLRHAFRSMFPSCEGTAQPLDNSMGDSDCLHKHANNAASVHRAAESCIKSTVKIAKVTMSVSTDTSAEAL
# Test details: Antagonist activity at human CB1 receptor expressed in HEK293 cells assessed as inhibition of Eu-GTP binding
Assay readout: pEC50
// scale note: pEC50 = -log10(conc_M); give the bare number

Molecule: CCCC#Cc1ccc(-c2c(CC)c(C(=O)NN3CCCCC3)nn2-c2ccc(Cl)cc2Cl)s1
pEC50: 7.86
//
Molecule: Cc1c(C(=O)NN2CC3CCCC3C2)nn(-c2ccc(Cl)cc2Cl)c1-c1ccc(C#CC2CCCC2)s1 (configuration not stated)
pEC50: 7.00

Value of pEC50 reported for the molecule Cc1c(C(=O)NN2CCCCC2)nn(-c2ccc(Cl)cc2Cl)c1-c1ccc(C#CC2CC2)s1 is 7.14

Short answer for CCCC#Cc1ccc(-c2c(C)c(C(=O)NN3CC4CCCC4C3)nn2-c2ccc(Cl)cc2Cl)s1 (configuration not stated) : pEC50 was 7.72

pEC50 in this record for CCCCCc1ccc(-c2c(C)c(C(=O)NN3CCCCC3)nn2-c2ccc(Cl)cc2Cl)s1 : 7.12

Value of measured pEC50 for the entry COCC#Cc1ccc(-c2c(C)c(C(=O)NN3CCCCC3)nn2-c2ccc(Cl)cc2Cl)s1 : 6.85

Lab book: pEC50 of Cc1c(C(=O)NN2CCCCC2)nn(-c2ccc(Cl)cc2Cl)c1-c1ccc(Br)s1 noted as 7.17

Given item Cc1c(C(=O)NN2CCCCC2)nn(-c2ccc(Cl)cc2Cl)c1-c1ccc(C#CC2CCCCC2)s1 , the value recorded as its pEC50 is 6.35

pEC50 measured on CCCCC#Cc1ccc(-c2c(C)c(C(=O)NCCCCCC)nn2-c2ccc(Cl)cc2Cl)s1 = 7.13

Note to self: pEC50 recorded for CCCCC#Cc1ccc(-c2c(C)c(C(=O)NN3CCCCC3)nn2-c2ccc(Cl)cc2Cl)s1 was 8.10

Record Cc1c(C(=O)NN2CCCCC2)nn(-c2ccc(Cl)cc2Cl)c1-c1ccc(C#CCN(C)C)s1 , field pEC50: 6.46

Consider CCCCC#Cc1ccc(-c2c(C)c(C(=O)NC3CCCCC3)nn2-c2ccc(Cl)cc2Cl)s1 . Its measured pEC50 is 7.36

---

# System under test: Cannabinoid receptor 1 (Homo sapiens)
# Test details: biochemical
# Type: cell-based, HEK293
# Description: Displacement of [3H]CP-55940 from human CB1 receptor expressed in HEK293 cells
Examples of molecules with documented IC50 follow.
The answer should read as a number with its unit following.

// solved cases for IC50 follow
Smiles repr: CCCC#Cc1ccc(-c2c(C)c(C(=O)NN3CCCCCC3)nn2-c2ccc(Cl)cc2Cl)s1
IC50: 7 nM
--
Smiles repr: Cc1c(C(=O)NN2CCCCC2)nn(-c2ccc(Cl)cc2Cl)c1-c1ccc(C#CC2CC2)s1
IC50: 60.4 nM
--
Smiles repr: CCOCC#Cc1ccc(-c2c(C)c(C(=O)NN3CCCCC3)nn2-c2ccc(Cl)cc2Cl)s1
IC50: 12.7 nM

Data point: CCCC#Cc1ccc(-c2c(CC)c(C(=O)NN3CCCCCC3)nn2-c2ccc(Cl)cc2Cl)s1 ; IC50 = 8.9 nM

---

# System under test: Cannabinoid receptor 2 (Homo sapiens, UniProt P34972)
# Sequence (P34972 whole entry): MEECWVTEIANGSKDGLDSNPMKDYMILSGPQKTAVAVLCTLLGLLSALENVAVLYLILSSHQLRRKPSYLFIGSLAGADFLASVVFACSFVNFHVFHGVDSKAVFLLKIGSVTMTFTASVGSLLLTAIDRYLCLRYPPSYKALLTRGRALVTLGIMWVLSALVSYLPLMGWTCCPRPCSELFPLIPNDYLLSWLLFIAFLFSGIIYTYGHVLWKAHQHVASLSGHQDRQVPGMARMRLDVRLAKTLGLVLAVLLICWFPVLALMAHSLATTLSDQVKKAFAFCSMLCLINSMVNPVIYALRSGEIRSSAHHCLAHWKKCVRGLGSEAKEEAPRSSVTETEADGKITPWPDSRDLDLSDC
# Test details: Displacement of [3H]CP-55940 from human CB2 receptor expressed in HEK293 cells
// IC50 lookup, one value per entry
Write it as a number; the unit nM goes unstated.

Molecule: Cc1c(C(=O)NN2CCCCC2)nn(-c2ccc(Cl)cc2Cl)c1-c1ccc(C#CCN(C)C)s1
IC50 / nM: 1270
//
Molecule: Cc1c(C(=O)NN2CCCCC2)nn(-c2ccc(Cl)cc2Cl)c1-c1ccc(Br)s1
IC50 / nM: 895
//
Molecule: Cc1c(C(=O)NN2CCCCCC2)nn(-c2ccc(Cl)cc2Cl)c1-c1ccc(C#CCC(C)C)s1
IC50 / nM: 688
//
Molecule: CCc1c(C(=O)NN2CCCCC2)nn(-c2ccc(Cl)cc2Cl)c1-c1ccc(C#CCC(C)C)s1
IC50 / nM: 1210
//
Molecule: CCC#Cc1ccc(-c2c(C)c(C(=O)NN3CCCCCC3)nn2-c2ccc(Cl)cc2Cl)s1
IC50 / nM: 1060

// field: IC50; key: Cc1c(C(=O)NN2CCCCCC2)nn(-c2ccc(Cl)cc2Cl)c1-c1ccc(Br)s1 ; value = 705

The molecule listed as CCCC#Cc1ccc(-c2c(C)c(C(=O)NN3CCCCCC3)nn2-c2ccc(Cl)cc2Cl)s1 shows IC50 equal to 1500
